Where do these numbers come from? They come from the antibiotic and cytotoxicity screens of Wong et al. (2023).

- Test system: HepG2
- procedureDetails: cytotoxicity call (relative viability < 0.9)
- conditionDetails: 10 µM
Out of some 39,000 compounds screened, about 3,300 (8.5%) were called active. For the sample, actives were picked, then their nearest neighbours and some compounds at random.
Outcome field: choose from yes for active, no for inactive

C[C@@H]1CN([C@@H](C)CO)C(=O)Cc2cc(NC(=O)Nc3cccc4ccccc34)ccc2O[C@@H]1CN(C)Cc1ccc2c(c1)OCO2; yes
C[C@H](CO)N1C[C@H](C)[C@@H](CN(C)Cc2ccc3c(c2)OCO3)Oc2ccc(NC(=O)Nc3cccc4ccccc34)cc2C1=O; no
C[C@H]1CN([C@@H](C)CO)C(=O)c2cc(NC(=O)NC3CCCCC3)ccc2O[C@@H]1CN(C)Cc1ccc(C(F)(F)F)cc1; no

Exam item: What did this assay record as the result for `COc1ccccc1C(=O)Nc1ccc2c(c1)C(=O)N(C)[C@@H]1CC[C@@H](CC(=O)NCCc3ccncc3)O[C@H]1CO2` ?
Marked response: no

Exam item: What did this assay record as the result for `C[C@H]1CN([C@@H](C)CO)C(=O)Cc2cc(NC(=O)Nc3cccc4ccccc34)ccc2O[C@H]1CN(C)Cc1ccc2c(c1)OCO2` ?
Marked response: no

Exam item: What did this assay record as the result for `C[C@H](CO)N1C[C@H](C)[C@@H](CN(C)Cc2ccc3c(c2)OCO3)Oc2ccc(NC(=O)Nc3cccc4ccccc34)cc2CC1=O` ?
Marked response: no

Exam item: What did this assay record as the result for `C[C@@H]1CN([C@H](C)CO)C(=O)Cc2cc(NC(=O)Nc3cccc4ccccc34)ccc2O[C@@H]1CN(C)Cc1ccc2c(c1)OCO2` ?
Marked response: yes

----------
- Tested on: HepG2
- procedureDetails: cytotoxicity call (relative viability < 0.9)
- conditionDetails: 10 µM
The whole screen tested about 39,000 compounds, of which about 3,300 (8.5%) were called active. This excerpt belongs to a sample that is enriched for actives.
Outcome field: choose from YES = active, NO = inactive

CS(=O)(=O)N1CCN(Cc2cc3nc(-c4cccc5n[nH]cc45)nc(N4CCOCC4)c3s2)CC1; YES

Here is the next item to consider.
Exam item: What did this assay record as the result for `COc1ccc(CN(CCN(C)C)c2ncccn2)cc1.Cl` ?
Marked response: NO

----------
- System: HepG2
- procedureDetails: cytotoxicity call (relative viability < 0.9)
- conditionDetails: 10 µM
The whole screen tested about 39,000 compounds, of which about 3,300 (8.5%) were called active. This excerpt belongs to a sample that is enriched for actives.
Outcome field: choose from active, inactive

C[C@H](O)C#Cc1ccc2c(c1)O[C@@H](CN(C)C(=O)c1ccncc1)[C@H](C)CN([C@@H](C)CO)S2(=O)=O; inactive
C[C@@H]1CN([C@H](C)CO)S(=O)(=O)c2ccc(C#Cc3ccncc3)cc2O[C@@H]1CN(C)C(=O)c1ccncc1; active

Exam item: What did this assay record as the result for `C[C@H](CO)N1C[C@H](C)[C@@H](CN(C)C(=O)c2ccncc2)Oc2cc(C#Cc3ccncc3)ccc2S1(=O)=O` ?
Marked response: active

Exam item: What did this assay record as the result for `C[C@@H](O)C#Cc1ccc2c(c1)O[C@@H](CN(C)C(=O)c1ccncc1)[C@@H](C)CN([C@@H](C)CO)S2(=O)=O` ?
Marked response: inactive

Exam item: What did this assay record as the result for `C[C@H](CO)N1C[C@H](C)[C@H](CN(C)CC2CCCCC2)OCCCC[C@H](C)Oc2ccc(NS(=O)(=O)c3ccc(Cl)cc3)cc2C1=O` ?
Marked response: active

Exam item: What did this assay record as the result for `C[C@@H]1CN([C@@H](C)CO)S(=O)(=O)c2ccc(C#Cc3ccncc3)cc2O[C@H]1CN(C)C(=O)c1ccncc1` ?
Marked response: inactive

Exam item: What did this assay record as the result for `COc1ccc(S(=O)(=O)Nc2cccc3c2O[C@@H](CN(C)C(=O)Nc2c(C)noc2C)[C@H](C)CN([C@H](C)CO)C3=O)cc1` ?
Marked response: inactive

Exam item: What did this assay record as the result for `C[C@H](CO)N1C[C@H](C)[C@@H](CN(C)Cc2ccc(Cl)c(Cl)c2)Oc2c(NC(=O)Nc3ccc(C(F)(F)F)cc3)cccc2C1=O` ?
Marked response: active

----------
- Tested on: HepG2
- procedureDetails: cytotoxicity call (relative viability < 0.9)
- conditionDetails: 10 µM
About 3,300 (8.5%) of roughly 39,000 compounds were called active. The list comes from a sample in which actives are over-represented; it also holds close analogues and randomly drawn compounds.
Outcome field: choose from active, inactive

C[C@@H]1CCCCO[C@@H](CN(C)Cc2ccc(C(F)(F)F)cc2)[C@H](C)CN([C@@H](C)CO)C(=O)c2cc(NC(=O)C3CCCCC3)ccc2O1; inactive
COc1ccc(S(=O)(=O)Nc2ccc3c(c2)C(=O)N([C@H](C)CO)C[C@@H](C)[C@H](CN(C)C(=O)NC2CCCCC2)OCCCC[C@@H](C)O3)cc1; inactive
C[C@H](CO)N1C[C@H](C)[C@H](CN(C)Cc2ccc(C(F)(F)F)cc2)OCCCC[C@H](C)Oc2ccc(NC(=O)C3CCCCC3)cc2C1=O; inactive
CC(C)CC(=O)N1CCN(S(C)(=O)=O)CC1; inactive

Exam item: What did this assay record as the result for `CO[C@H](CN(C)C(=O)Nc1ccc(C(F)(F)F)cc1)[C@@H](C)CN(Cc1ccccc1Cl)[C@@H](C)CO` ?
Marked response: inactive

Exam item: What did this assay record as the result for `C[C@H]1CN([C@@H](C)CO)C(=O)c2cccc(NC(=O)Nc3ccc4c(c3)OCO4)c2O[C@@H]1CN(C)S(C)(=O)=O` ?
Marked response: inactive

Exam item: What did this assay record as the result for `C[C@@H]1CN([C@H](C)CO)C(=O)c2cccc(NS(=O)(=O)c3cn(C)cn3)c2O[C@H]1CN(C)CC1CC1` ?
Marked response: inactive

----------
- Test system: HepG2
- procedureDetails: cytotoxicity call (relative viability < 0.9)
- conditionDetails: 10 µM
Hit rate of the full screen: of about 39,000 compounds, about 3,300 (8.5%) were called active. This is one part of a sample in which actives are shown more often than they occur.
Outcome field: choose from active, inactive

C[C@@H]1CCCCO[C@H](CN(C)S(=O)(=O)c2ccc(F)cc2)[C@H](C)CN([C@H](C)CO)C(=O)c2cc(NC(=O)Nc3ccc(F)cc3)ccc2O1; active
Cc1noc(C)c1NC(=O)N(C)C[C@H]1Oc2c(NS(=O)(=O)c3cn(C)cn3)cccc2C(=O)N([C@@H](C)CO)C[C@@H]1C; inactive
CC1(C)OC(=O)C2(C(=O)O1)[C@@H](c1ccc(-c3ccc(C(F)(F)F)cc3)cc1)CC(=O)C[C@H]2c1ccccc1; inactive

Here is the next item to consider.
Exam item: What did this assay record as the result for `C[C@@H]1CN([C@H](C)CO)C(=O)CCCn2cc(nn2)CO[C@@H]1CN(C)C(=O)CCCN(C)C` ?
Marked response: inactive

----------
- Test system: HepG2
- procedureDetails: cytotoxicity call (relative viability < 0.9)
- conditionDetails: 10 µM
Among all 39,000 compounds or so, about 3,300 (8.5%) were called active. The entries come from a sample that favours actives as a whole.
Outcome field: choose from Yes for active, No for inactive

For orientation, consider the following solved cases.
C[C@H]1CN([C@@H](C)CO)C(=O)c2cccc(NC(=O)C3CCCCC3)c2O[C@@H]1CN(C)Cc1ccc(Oc2ccccc2)cc1; No
C[C@H]1CN([C@@H](C)CO)S(=O)(=O)c2ccc(C#Cc3ccccc3F)cc2O[C@H]1CN(C)C(=O)Cc1ccncc1; No
C[C@@H]1CCCCO[C@H](CN(C)CC2CC2)[C@H](C)CN([C@@H](C)CO)C(=O)c2cc(NS(=O)(=O)c3cn(C)cn3)ccc2O1; No

Exam item: What did this assay record as the result for `COc1ccc(NC(=O)Nc2ccc3c(c2)C(=O)N([C@H](C)CO)C[C@H](C)[C@@H](CN(C)C(=O)Nc2ccc(C(F)(F)F)cc2)OCCCC[C@H](C)O3)cc1` ?
Marked response: No

Exam item: What did this assay record as the result for `C[C@@H]1CN([C@H](C)CO)C(=O)c2cc(NC(=O)c3ccccc3)ccc2O[C@@H](C)CCCCO[C@@H]1CN(C)Cc1ccc2c(c1)OCO2` ?
Marked response: Yes

Exam item: What did this assay record as the result for `C[C@@H]1CCCCO[C@H](CN(C)Cc2ccc3c(c2)OCO3)[C@@H](C)CN([C@H](C)CO)C(=O)c2cc(NC(=O)c3ccccc3)ccc2O1` ?
Marked response: No

Exam item: What did this assay record as the result for `COc1ccccc1-c1ccc2c(c1)O[C@H](CN(C)CC1CCOCC1)[C@@H](C)CN([C@H](C)CO)S2(=O)=O` ?
Marked response: No

Exam item: What did this assay record as the result for `Cc1noc(C)c1S(=O)(=O)N(C)C[C@@H]1Oc2ccc(NS(=O)(=O)c3cccs3)cc2CC(=O)N([C@H](C)CO)C[C@@H]1C` ?
Marked response: No

Exam item: What did this assay record as the result for `C[C@H]1CN([C@@H](C)CO)C(=O)Cc2cc(NC(=O)Nc3ccc4c(c3)OCO4)ccc2O[C@H]1CN(C)Cc1ccc(C(F)(F)F)cc1` ?
Marked response: Yes

Exam item: What did this assay record as the result for `COc1ccc(NC(=O)Nc2ccc3c(c2)C(=O)N([C@@H](C)CO)C[C@H](C)[C@H](CN(C)Cc2ccncc2)OCCCC[C@H](C)O3)cc1` ?
Marked response: No

Exam item: What did this assay record as the result for `C[C@@H]1CCCCO[C@@H](CN(C)Cc2ccc(Cl)c(Cl)c2)[C@H](C)CN([C@H](C)CO)C(=O)c2cc(NC(=O)Cc3ccccc3)ccc2O1` ?
Marked response: No

Exam item: What did this assay record as the result for `C[C@@H]1CCCCO[C@@H](CN(C)Cc2ccccc2)[C@@H](C)CN([C@@H](C)CO)C(=O)c2cc(NC(=O)Cc3ccccc3)ccc2O1` ?
Marked response: No

Exam item: What did this assay record as the result for `C[C@H](CO)N1C[C@H](C)[C@H](CN(C)Cc2ccc(Oc3ccccc3)cc2)Oc2cc(Br)ccc2S1(=O)=O` ?
Marked response: No
